- TARGET: T1, EsCas13d, nuclease-dead (Eubacterium siraeum, UniProt B0MS50, R295A;H300A;R849A;H854A)
- T1 sequence: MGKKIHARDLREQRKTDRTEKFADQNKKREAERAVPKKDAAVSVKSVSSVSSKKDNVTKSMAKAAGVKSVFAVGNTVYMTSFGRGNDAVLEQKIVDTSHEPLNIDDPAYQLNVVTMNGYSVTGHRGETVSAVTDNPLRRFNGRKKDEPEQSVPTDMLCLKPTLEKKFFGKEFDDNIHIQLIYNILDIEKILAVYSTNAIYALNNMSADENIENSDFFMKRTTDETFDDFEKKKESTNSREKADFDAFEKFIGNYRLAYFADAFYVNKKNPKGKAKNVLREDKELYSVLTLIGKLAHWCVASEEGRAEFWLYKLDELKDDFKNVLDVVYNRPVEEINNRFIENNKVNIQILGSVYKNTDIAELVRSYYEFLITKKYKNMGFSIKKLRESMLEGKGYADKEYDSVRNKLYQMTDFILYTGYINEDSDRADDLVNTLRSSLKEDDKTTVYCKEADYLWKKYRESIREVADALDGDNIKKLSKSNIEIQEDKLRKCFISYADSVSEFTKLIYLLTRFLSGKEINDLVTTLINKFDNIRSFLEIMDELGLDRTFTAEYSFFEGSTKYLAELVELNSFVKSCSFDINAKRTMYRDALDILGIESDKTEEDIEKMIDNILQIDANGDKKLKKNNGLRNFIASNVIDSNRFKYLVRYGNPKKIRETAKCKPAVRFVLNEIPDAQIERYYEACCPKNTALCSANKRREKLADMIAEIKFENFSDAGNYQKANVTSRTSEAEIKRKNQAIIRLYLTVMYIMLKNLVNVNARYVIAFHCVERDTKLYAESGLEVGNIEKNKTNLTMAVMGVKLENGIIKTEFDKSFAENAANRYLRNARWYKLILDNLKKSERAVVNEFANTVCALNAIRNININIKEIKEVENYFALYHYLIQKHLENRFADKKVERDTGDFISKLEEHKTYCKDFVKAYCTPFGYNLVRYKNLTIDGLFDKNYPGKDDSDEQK
- METHOD_NOTES: crRNA (strand 1, pre-loaded); Mg2+; 40 mM Tris-HCl pH 7.5, 150 mM NaCl, 6 mM MgCl2, 1 mM DTT, 0.1% Tween-20, 0.2 mg/ml BSA; 25 C; 10 min per concentration, then washed
- PARTICULARS: tags: His6-TwinStrep-SUMO cleaved; N-terminal SNAP kept (SNAP-Surface 488); label: 3' end held by stalled T7 RNA polymerase
PROPERTY_LABEL: Kd
Please make sure the unit comes right after the number.

INSERT INTO results (binder, reported_value) VALUES
  ('target 1 insC 3'' of 10,insA 3'' of 5 (mixed) RNA 1: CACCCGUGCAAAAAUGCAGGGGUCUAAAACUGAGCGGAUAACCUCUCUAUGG RNA 2: GGGAAUGGAUCCACAUCUACGAAUUCGUACCAUAGAGAGGUUCAUCCGACUCACCGAGAUCGGAAGAGCACACGU', '10.4 nM');

Consider the binder target 1 C6U,C7U (mixed) RNA 1: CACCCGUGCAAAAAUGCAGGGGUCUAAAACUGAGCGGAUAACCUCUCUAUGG RNA 2: GGGAAUGGAUCCACAUCUACGAAUUCGUACCAUAGAGAGGUUAUUUGCUCACCGAGAUCGGAAGAGCACACGU and give its measured Kd.
6.3 nM

Taken from paper PMC10786891.
